Just for reference, PubChem BioAssay (NCI) is where these values come from.

System: BT-549 breast
Assay: NCI-60 one-dose screen, 48 h (100 = growth as untreated, 0 = no growth, -100 = all killed)
Conditions: 10 µM
About 83,000 compounds went through this panel and 20% of them were active in at least one assay; those are over-represented in the sample as a whole.
// reported growth per item
quantityMeasured: growth (%)

{"compound": "COc1ccc(Nc2nc3ccc(NC(=O)NC4CCCCC4)cc3[nH]c2=O)cc1", "quantityMeasured": "growth", "assayResult": 87.7}
{"compound": "Fc1ccc(-c2nnc(-c3c(-c4ccc(F)cc4)nc4ccccn34)o2)cc1", "quantityMeasured": "growth", "assayResult": 60.2}
{"compound": "CC(C)=NNc1ncnc2c1ncn2C1OC(CO)C(O)C1O (stereo not given)", "quantityMeasured": "growth", "assayResult": 43}
{"compound": "CN1c2ccccc2[C@]2(Cc3ccccc3)Cc3ccccc3N[C@H]12", "quantityMeasured": "growth", "assayResult": 122}
{"compound": "CCOC(=O)c1ccc(NC(=O)Nc2ncc(Cl)cc2Cl)cc1", "quantityMeasured": "growth", "assayResult": 106}
{"compound": "COc1ccc(C2=NN(C(=O)c3ccc(S(C)(=O)=O)cc3)C(c3ccc(OC)c(OC)c3)C2)c(OC)c1 (stereo not given)", "quantityMeasured": "growth", "assayResult": 91.6}
{"compound": "COc1ccc(-c2ccc(-c3ccc(C(=N)N)cn3)o2)cc1", "quantityMeasured": "growth", "assayResult": 86.3}
{"compound": "COc1ccc(-c2nc(-c3nc4ccc(Cl)cc4[nH]3)c3ccccn23)cc1", "quantityMeasured": "growth", "assayResult": 42.9}
{"compound": "Cc1ccc(NC(=O)Nc2nc3ccccc3s2)cc1NC(=O)Nc1nc2ccccc2s1", "quantityMeasured": "growth", "assayResult": 104}
{"compound": "O=C(Cc1csc2nc(-c3ccc(Cl)cc3)cn12)N/N=C/c1ccccc1O", "quantityMeasured": "growth", "assayResult": 62.6}

---

System: NCI-H522 lung
Assay: NCI-60 one-dose screen, 48 h (100 = growth as untreated, 0 = no growth, -100 = all killed)
Settings: 10 µM
About 83,000 compounds went through this panel and 20% of them were active in at least one assay; those are over-represented in the sample as a whole.
Quick rule: growth of at least 50% means condition met, below that means condition not met.

{"molecule": "Oc1[nH]c2ccc(Cl)cc2c1/C=c1/ccc2c(c1)N=C(c1cc(F)cc(F)c1)N=2", "classLabel": "condition not met"}
{"molecule": "CCCCCCCCCCCCC1C/C=C\\CCCC(=O)O1 (stereo unspecified)", "classLabel": "condition met"}
{"molecule": "c1ccc(CO[C@H]2CO[C@H]3[C@@H]2OC[C@H]3OCc2ccccc2)cc1", "classLabel": "condition met"}
{"molecule": "Oc1[nH]c2ccc(Cl)cc2c1/C=c1/ccc2c(c1)N=C(c1cccs1)N=2", "classLabel": "condition met"}
{"molecule": "CNc1ccc(CSc2ccc(C)cc2)cc1", "classLabel": "condition not met"}
{"molecule": "COc1ccc(C2=NN(C(=O)c3ccc(S(C)(=O)=O)cc3)C(c3ccc(OC)c(OC)c3)C2)c(OC)c1 (stereo unspecified)", "classLabel": "condition met"}
{"molecule": "O=S(=O)(NCCNc1nccc(-c2c(-c3ccc(F)cc3)nc3sccn23)n1)c1ccc2ccccc2c1", "classLabel": "condition met"}
{"molecule": "O=C1/C(=C\\c2ccc(F)cc2)CN(C(=O)c2ccc([N+](=O)[O-])cc2)C/C1=C\\c1ccc(F)cc1", "classLabel": "condition not met"}
{"molecule": "CN(C)CCCn1c(=O)c2ccccc2c2cnc3[nH]ccc3c21", "classLabel": "condition not met"}
{"molecule": "O=C(NN1C(=O)CSC1c1ccc(Cl)cc1)c1cccnc1 (stereo unspecified)", "classLabel": "condition met"}
{"molecule": "COc1ccc(/C=C2/CN(C(=O)c3ccccc3F)C/C(=C\\c3ccc(OC)cc3)C2=O)cc1", "classLabel": "condition not met"}
{"molecule": "COc1ccc(-c2cc(/C=C3\\C(=O)Nc4ccc(Cl)cc43)[nH]n2)cc1OC", "classLabel": "condition met"}
{"molecule": "Clc1ccc(Nc2ccnc(NCCNc3ccnc4cc(Cl)ccc34)n2)cc1", "classLabel": "condition not met"}
{"molecule": "COc1ccc(-c2nc(-c3nc4ccc(OC)cc4[nH]3)cc3c2[nH]c2ccccc23)cc1", "classLabel": "condition not met"}
{"molecule": "NC(=O)CC1(c2ccccc2)CCCCC1", "classLabel": "condition met"}
{"molecule": "OCC1OC(n2cnc3c(N/N=C\\c4ccccn4)ncnc32)C(O)C1O (stereo unspecified)", "classLabel": "condition not met"}
{"molecule": "CSc1nc(=O)n(Cc2ccc(F)cc2)c(=O)n1Cc1ccc(C)cc1", "classLabel": "condition met"}
{"molecule": "COc1cc2cc3c(nc2cc1OC)CCN3Cc1ccc(NC(=O)Nc2cc(C(F)(F)F)cc(C(F)(F)F)c2)cc1", "classLabel": "condition met"}
{"molecule": "CC1(O)CCC2CC3OC3(C)CCC3OC3(C)CCC1C2(C)C (stereo unspecified)", "classLabel": "condition met"}
{"molecule": "CSc1nn(-c2ccccc2)c2ncnc(Oc3ccccc3)c12", "classLabel": "condition met"}
{"molecule": "O=S(=O)(Nc1ccccn1)c1ccc(N=Nc2ccc(O)c3ncccc23)cc1", "classLabel": "condition not met"}
{"molecule": "Clc1ccc(-c2cn(-c3ccccc3)c(-c3ccccc3)n2)c(Cl)c1", "classLabel": "condition not met"}
{"molecule": "Clc1nc(Cl)c2c(ncn2C/C=C\\Cn2cnc3c(Cl)nc(Cl)nc32)n1", "classLabel": "condition not met"}
{"molecule": "N#Cc1c(C#N)c(SSc2c(C#N)c(C#N)c(N)n2-c2ccccc2)n(-c2ccccc2)c1N", "classLabel": "condition met"}
{"molecule": "CCN(CC)CCOc1nc2ccc(OC)cc2c2c1-c1ccc(OC)cc1C2=O", "classLabel": "condition not met"}
{"molecule": "COc1ccc2c(c1)nc(N)c1c3cccnc3cn21", "classLabel": "condition not met"}
{"molecule": "CC(=O)[C@H]1CC[C@H]2[C@@H]3CCC4=CC(=O)C=C[C@]4(C)[C@H]3CC[C@]12C", "classLabel": "condition met"}
{"molecule": "CCC(=O)N1C/C(=C/c2ccc(Cl)cc2)C(=O)/C(=C/c2ccc(Cl)cc2)C1", "classLabel": "condition not met"}
{"molecule": "COc1cc(-c2cc(C(=O)N3CCN(C(=O)c4ccccc4NCc4ccco4)CC3)nc3cc(-c4ccccc4)nn23)cc(OC)c1OC", "classLabel": "condition not met"}
{"molecule": "O=C(Nc1ccncc1)C(=O)c1cn(S(=O)(=O)c2ccc(F)cc2)c2ccccc12", "classLabel": "condition not met"}
{"molecule": "COc1cc(Nc2ccnc(NCCNc3ccnc4cc(Cl)ccc34)n2)cc(OC)c1", "classLabel": "condition not met"}
{"molecule": "O=C(Nc1ccc(Cl)c(Cl)c1)Nc1c(Oc2ccc(Cl)c(Cl)c2)ccc(Cl)c1S(=O)(=O)O", "classLabel": "condition not met"}
{"molecule": "CC/C(C)=C(\\C)C(=O)O", "classLabel": "condition met"}
{"molecule": "Nc1ccn(C2CC(O)C(CO)O2)c(=O)n1 (stereo unspecified)", "classLabel": "condition met"}
{"molecule": "CC(=O)c1nc2ccccc2n1CCN1CCN(C)CC1", "classLabel": "condition not met"}
{"molecule": "Nc1nc(-c2ccccc2Cl)cc(-c2ccc(Cl)cc2Cl)n1", "classLabel": "condition met"}
{"molecule": "O=C(Nc1cccc(-n2cc(-c3ccncc3)c(-c3ccc(O)c(Cl)c3)n2)c1)Nc1cccc(C(F)(F)F)c1", "classLabel": "condition not met"}
{"molecule": "Cc1ccc(NC(=O)Nc2c(Cl)cccc2Cl)cn1", "classLabel": "condition not met"}
{"molecule": "COc1ccc(NC2=NC(C)(CO)CS2)cc1 (stereo unspecified)", "classLabel": "condition not met"}
